# Tested on: Escherichia coli TOP10;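 further: peptides expressed intracellularly from a pBAD plasmid library in pooled LB shake-flask culture, induced with 0.3% L-arabinose, DNA abundance read by NGS, three biological replicates, DESeq2 with apeglm shrinkage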
# assay overview: shrunken log2 fold change of peptide-encoding DNA abundance (4.5 h post-induction vs induction); higher = less antimicrobial activity (less host growth inhibition)
# assay conditions: time post-induction: 4.5 h; library: site-saturation at positions 5, 18, 19, 20
metric name: shrunken log2 fold change
Give only the figure.

>>> numeric_readout("RRIRKRPPRLPRPRPRPFDDPRP")
-0.131
>>> numeric_readout("RRIRHRPPRLPRPRPRPMWNPRP")
-0.0721
>>> numeric_readout("RRIRVRPPRLPRPRPRPACFPRP")
0.169
>>> numeric_readout("RRIRERPPRLPRPRPRPNPKPRP")
-0.0343
>>> numeric_readout("RRIRCRPPRLPRPRPRPNLEPRP")
-0.267

Ask | Suppose we examine the sequence RRIRVRPPRLPRPRPRPLPNPRP ; what shrunken log2 fold change value has been reported?
Reply | -0.0957

Ask | Suppose we examine the sequence RRIRGRPPRLPRPRPRPFPVPRP ; what shrunken log2 fold change value has been reported?
Reply | 0.291

Ask | Suppose we examine the sequence RRIRHRPPRLPRPRPRPPLWPRP ; what shrunken log2 fold change value has been reported?
Reply | 0.323

Ask | Suppose we examine the sequence RRIRSRPPRLPRPRPRPIQDPRP ; what shrunken log2 fold change value has been reported?
Reply | 0.00805

Ask | Suppose we examine the sequence RRIRQRPPRLPRPRPRPPMFPRP ; what shrunken log2 fold change value has been reported?
Reply | -0.325

Ask | Suppose we examine the sequence RRIRLRPPRLPRPRPRPLKWPRP ; what shrunken log2 fold change value has been reported?
Reply | -0.369

Ask | Suppose we examine the sequence RRIRLRPPRLPRPRPRPAEKPRP ; what shrunken log2 fold change value has been reported?
Reply | -0.0786

Ask | Suppose we examine the sequence RRIRQRPPRLPRPRPRPEEWPRP ; what shrunken log2 fold change value has been reported?
Reply | 0.0824
